Let's look at some variants and their measured yeast fitness (ln).
B1: tRNA (parent)
chain: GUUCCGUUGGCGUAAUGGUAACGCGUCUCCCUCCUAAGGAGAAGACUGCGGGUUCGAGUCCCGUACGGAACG

Variants of: B1
Experiment: yeast fitness, log relative to wild type (ln ratio); higher = fitter; tRNA-Arg(CCU), competitive growth, 37 C, 1 M NaCl
reported.endpoint: yeast fitness (ln)

alteration | result
C27U A43C C66U A69G A70G | -0.255
U2G C46U C66A A70G C71U | -0.116
G1A U2C G6A C27U C46U C66U A69G A70G | -0.364
G6U C27U A43C C46U C66U A69G C71U | -0.432
G1A U2C A43C A69G A70G | -0.151
U2G G6U C27U A43C C46U A70G C71U | -0.295
A43C C46U C66U A70U | -0.0743
G1A U2G C27U C46U A69G A70G C71U | -0.292
U2G C27U A43C C71U | -0.157
G1A U2C G6A A43C C46U C66U A70G C71U | -0.015
G1A U2C C27U C46U C71U | -0.147
U2C A69G | -0.0379
G6A C27U A43C C46U C66U | -0.0283
U2G G6U C27U C66U A69G A70U | -0.276
G1A G6U C66U | -0.126
G6A C27U C46U A69G A70G C71U | -0.219
C66U A69G A70G C71U | -0.106
G1A U2G G6A C27U A43C C66U A70G C71U | -0.479
G1A U2G G6U C46U A70G | -0.282
G6A C46U C66U | 0.00319
U2G G6U A43C C46U C71U | -0.198
G1A U2C G6U A43C C66U A70G C71U | -0.335
G1A A43C C46U A70G C71U | -0.032
G1A U2G G6U C27U C46U C66U A69G A70U | -0.339
U2G C27U A43C C66A | -0.171
G1A G6U A69G A70U C71U | -0.407
U2G G6U C27U C46U C66U A70G | -0.176
G6U A43C C66U A70G | -0.273
U2C G6A C27U A43C C46U C66U A70U | -0.0567
U2G G6A A43C C66A A69G A70G C71U | -0.154
U2C G6U C27U A43C C46U C66U A69G C71U | -0.465
G1A U2G G6A A43C A70G C71U | -0.224
U2C G6A A43C C66U A69G A70U | -0.232
G1A G6U A43C C46U A69G A70G C71U | -0.321
G1A G6U A43C C46U A69G A70U C71U | -0.434
U2C G6U C27U A43C C46U C66U A69G A70U C71U | -0.391
G1A U2C G6U C27U C46U C66U A69G A70U | -0.222
G6U C27U A43C A69G A70U | -0.391
G1A G6U C27U A43C C46U C66A A70U C71U | -0.325
U2C G6U C46U C66U A70U C71U | -0.202
G1A G6U C46U C66U A70G C71U | -0.277
G6U C27U A43C C66A A70U C71U | -0.477
G1A G6U C27U A43C C66U | -0.362
A43C C46U C66A A69G C71U | -0.26
A43C C66U | -0.178
G1A U2C G6A C27U A43C A70U | -0.0697
